B1: 2K2A (parent)
chain: ELREAFRLYDKEGNGYISTDVMREILAELDETLSSEDLDAMIDEIDADGSGTVDFEEFMGVMT

# Variants of: B1
# assayText: folding stability dG (cDNA display proteolysis); higher = more stable
# conditions: PBS, room temperature
endpointName: folding stability dG (kcal/mol)
All answers are understood in kcal/mol, so give the number only.

Here are 3 variants together with their reported answers.
> print(dat)
                              sequenceentry  resultnumber
1  ELREAFRLYDKEGNGYISTDVMTEILAELDETLSSEDLDAMIDEIDADGSGTVDFEEFMGVMT [R23T]        -0.478
2  ELREAFRLYDKEGNGEISTDVMREILAELDETLSSEDLDAMIDEIDADGSGTVDFEEFMGVMT [Y16E]         0.315
3  ELREAFRLYDKEGNLYISTDVMREILAELDETLSSEDLDAMIDEIDADGSGTVDFEEFMGVMT [G15L]         0.841

Documented folding stability dG of ELRSAFRLYDKEGNGYISTDVMREILAELDETLSSEDLDAMIDEIDADGSGTVDFEEFMGVMT [E4S] : 1.24

Documented folding stability dG of ELIEAFRLYDKEGNGYISTDVMREILAELDETLSSEDLDAMIDEIDADGSGTVDFEEFMGVMT [R3I] : 1.99

Documented folding stability dG of ELREAFRLYDKEGNGYISTDVMREILAELDETLSSEDLDAMIDEIDADGSGTVDEEEFMGVMT [F55E] : 1.33
